Measured values drawn from PubChem BioAssay (NCI) for this set.

# Test system: HOP-62 NSCLC
# protocol-description: NCI tumour cell line growth inhibition, 48 h
property-measured: TGI

>  <compound>
O=c1[nH]c2cc([N+](=O)[O-])c(N(CCO)CCO)c([N+](=O)[O-])c2[nH]1

>  <TGI>
> 100 µM

$$$$

Would you be so kind as to report TGI for each listed record?
1. CN(C)C(=O)CO/N=C1/C(c2c(O)[nH]c3ccccc23)=Nc2ccccc21
2. COC(=O)C(Cc1ccccc1)NC(=O)C(CCCN=C(N)N)NC(=O)OCc1ccccc1 (stereo not drawn)

Result block:
> 100 µM
> 100 µM

----------
Please go through the items and note down their TGI.
# Test system: HCT-116 colon
# protocol-description: NCI tumour cell line growth inhibition, 48 h

Please review the following examples before continuing.
>  <molecule>
NC(=O)N/N=C1/CCCC/C1=C\c1ccccc1

>  <TGI>
> 100 µM

$$$$
>  <molecule>
COC(=O)Nc1nc2ccc(NS(=O)(=O)c3ccc(F)cc3)cc2[nH]1

>  <TGI>
> 100 µM

$$$$
>  <molecule>
CC(C)c1ccc(O)c(O)c(=O)c1 (tested in a mixture with another compound)

>  <TGI>
> 42.9 µM

$$$$

Query block: State TGI on HCT-116 colon. Entry: FC(F)(F)c1nc2cc(SSc3cc4nc(C(F)(F)F)[nH]c4cc3Cl)c(Cl)cc2[nH]1
Result block: > 100 µM

----------
Please go through the items and note down their TGI.
# System: SF-295 CNS
# protocol-description: NCI tumour cell line growth inhibition, 48 h

>  <compound>
CS(=O)(=O)OC1CCN(C2(c3cccc(O)c3)CCCCC2)CC1

>  <TGI>
> 100 µM

$$$$
>  <compound>
CN(C)CCC(=O)NCc1c2nc3ccccc3nc2n2ccccc12

>  <TGI>
> 100 µM

$$$$

Query block: Return reported TGI. Input compound: CC1(C)C(C(=O)OC(C#N)c2cccc(OCC(=O)OCc3ccccc3)c2)C1(C)C (stereo not drawn)
Result block: > 100 µM

----------
# Tested on: KM12 colon
# protocol-description: NCI tumour cell line growth inhibition, 48 h
Please go through the items and note down their TGI.

Please review the following examples before continuing.
>  <molecule>
COc1cc(C(=C2SCCS2)c2nccc3cc(OC)c(OC)cc23)c([N+](=O)[O-])cc1OC

>  <system-tested>
KM12 colon

>  <recorded-measurement>
> 100 µM

$$$$
>  <molecule>
Nc1n[n+]([O-])c2cnccc2[n+]1[O-]

>  <system-tested>
KM12 colon

>  <recorded-measurement>
> 100 µM

$$$$

Would you be so kind as to report TGI for each listed record?
1. O=C(O)C1=C(Cl)c2ccccc2S1(=O)=O
2. Oc1cccc2nc3cc(CN4CCOCC4)c(CN4CCOCC4)cc3nc12

Result block:
1: > 100 µM; 2: > 100 µM

Would you be so kind as to report TGI for each listed record?
1. O=C(Cc1ccccc1)NN1C(=O)C(Cl)C1c1ccccc1 (configuration not stated)
2. O=C(Cc1nc2ccccc2s1)C(=O)Nc1ccc(Cl)cc1Cl
3. COC(=O)C1=C2Nc3ccccc3C23CCN2C(O)C4(CC5CC67CCOC6CCN6CCC8(c9cccc(OC)c9N(C4)C58O)C67)C4OCCC4(C1)C23 (configuration not stated)
4. COc1ccc(-c2cc(-c3ccc(Nc4ccnc5cc(C(F)(F)F)ccc45)cc3)[nH]c(=O)c2C#N)cc1
5. O=C(Nc1ccc(Cl)cc1)c1cc(S(=O)(=O)NC2=NC(c3ccccc3)c3cc(Cl)ccc3N2)c(SSc2cc(Cl)c(C(=O)Nc3ccc(Cl)cc3)cc2S(=O)(=O)NC2=NC(c3ccccc3)c3cc(Cl)ccc3N2)cc1Cl (configuration not stated)

Result block:
["> 100 µM", "> 100 µM", "> 100 µM", "> 100 µM", "> 100 µM"]

Would you be so kind as to report TGI for each listed record?
1. Cc1cc(Cl)ccc1Nc1nc(C(F)(F)F)ccc1C(=O)N/N=C/c1ccc(N(C)C)cc1
2. CC(=O)[CH-]C(=O)c1ccccc1.CC(=O)[CH-]C(=O)c1ccccc1.CC[O-].O=C1C=C([O-])C(=O)c2ccccc21.[Ti+4]
3. CCN1CCN(c2cc(C)nc(NCc3cc(Nc4ccnc5cc(Cl)ccc45)ccc3F)n2)CC1
4. COC(=O)NN=C1C(C)(C)C(=NNC(=O)OC)C1(C)C

Result block:
1. > 100 µM
2. > 100 µM
3. > 100 µM
4. > 100 µM
